- Test system: biotinyl-Val-oxazolone
- protocol.description: self-aminoacylation, catalytic enhancement (BVO) (fold over background); higher = more active; k-Seq, kA / k0A0; sequences stand for … in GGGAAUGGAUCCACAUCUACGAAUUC…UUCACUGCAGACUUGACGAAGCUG
Variants at the floor of the assay were thinned out.
Each record's self-aminoacylation is compared with low interval (below 1), middle interval (1 to below 3), high interval (3 or more) to give its class.

Example entries and their recorded answers appear below.
ordered_residues="CUACUUCAAAGAACCGGUCUG [Fam1A.1 aminoacylation ribozyme variant]" cat="low interval"
ordered_residues="CGACACUUAAAGCAAUCGGUC [Fam1B.1 aminoacylation ribozyme variant]" cat="low interval"
ordered_residues="AGGUUUGCUAAUAAUCGCAAG [Fam3.1 aminoacylation ribozyme variant]" cat="low interval"

Assign a bin to CUACUUGAAACAAUCGGUUUG [Fam1A.1 aminoacylation ribozyme variant]
low interval

Assign a bin to AUUACCCUAGUCAUCGCGUGA [Fam2.1 aminoacylation ribozyme variant]
high interval

Assign a bin to AUUACCCUGGUCAUCAAGUGA [Fam2.1 aminoacylation ribozyme variant]
middle interval

Assign a bin to AUUCACCCAGGUCUUCGGGUG [Fam2.2 aminoacylation ribozyme variant]
high interval

----------
- Test system: biotinyl-Ile-oxazolone
- protocol.description: self-aminoacylation, catalytic enhancement (BIO) (fold over background); higher = more active; k-Seq, kA / k0A0; sequences stand for … in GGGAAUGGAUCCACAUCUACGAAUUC…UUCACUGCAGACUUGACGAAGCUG
This sample holds only a part of the variants without activity.
// not fulfilled strictly below 1 in self-aminoacylation; fulfilled otherwise

ordered_residues="AUUCCCCUGGUCAUCGAGAGA [Fam2.1 aminoacylation ribozyme variant]" cat=fulfilled
ordered_residues="AAGUGUGCGAAUAGUCGCAAG [Fam3.1 aminoacylation ribozyme variant]" cat=fulfilled
ordered_residues="CCACACUUCAAGCAAUCGGAA [Fam1B.1 aminoacylation ribozyme variant]" cat=fulfilled

Say whether AUACACCUAGGUCAUCGGGGG [Fam2.2 aminoacylation ribozyme variant] shows self-aminoacylation of 1 or more.
fulfilled

Say whether AUUCACCUAUGUCAACGGGUG [Fam2.2 aminoacylation ribozyme variant] shows self-aminoacylation of 1 or more.
fulfilled

Say whether AAGUCUGCUAAUAGCCGCAAG [Fam3.1 aminoacylation ribozyme variant] shows self-aminoacylation of 1 or more.
fulfilled

Say whether AUUACCCUAGCCAUCGAGUGA [Fam2.1 aminoacylation ribozyme variant] shows self-aminoacylation of 1 or more.
fulfilled

----------
- Test system: biotinyl-Leu-oxazolone
- protocol.description: self-aminoacylation, catalytic enhancement (BLO) (fold over background); higher = more active; k-Seq, kA / k0A0; sequences stand for … in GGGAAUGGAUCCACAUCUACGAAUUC…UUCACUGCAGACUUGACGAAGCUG
This sample holds only a part of the variants without activity.
endpoint: self-aminoacylation
One number for each entry.

Past entries and their recorded results:
ordered_residues="AAGUUUGCUAAUAGUCACAAG [Fam3.1 aminoacylation ribozyme variant]" endpoint=self-aminoacylation meas_value=1.21
ordered_residues="AUUCACCUAGGUAAUCGGGUA [Fam2.2 aminoacylation ribozyme variant]" endpoint=self-aminoacylation meas_value=1.33
ordered_residues="AAUCACCAAGGUCAUCGGGUG [Fam2.2 aminoacylation ribozyme variant]" endpoint=self-aminoacylation meas_value=10.7
ordered_residues="AGGUUUGCUAAUAGGCGCAAG [Fam3.1 aminoacylation ribozyme variant]" endpoint=self-aminoacylation meas_value=0.626

Now consider a different sequence.
So, AUUGACCUAGGUCAUCGGGUU [Fam2.2 aminoacylation ribozyme variant] ? Its self-aminoacylation was 18.8
